# vessel count % control listing for each entry below
# Tested on: in vivo angiogenesis, blood vessel count
# METHOD SUMMARY: reduction of blood vessel formation in vivo – HTS, in vivo study (AID 732);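 further: zebrafish embryos dosed at one day post fertilization; 0% = reference inhibitor and 100% = plate mean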
# RUN CONDITIONS: hits give low values;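 tested at 30 µM in the well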
Calls of active or inactive are those of the source. How the calls were made is not given here.

The cases that follow already have their vessel count % control on record.
COMPOUND	vessel count % control
CC(N)Cc1c[nH]c2ccc(O)cc12 (centres undefined)	99.1% (inactive)
CC1CCN=C(N)S1 (centres undefined)	92% (inactive)

Value wanted: vessel count % control (in vivo angiogenesis, blood vessel count) of entry `N[C@@H](CC(=O)O)C(=O)O`
94.7% (inactive)

Another: `COc1ccc(C(=O)N2CCCC2=O)cc1`
116% (inactive)

Another: `NNCc1cccc(O)c1`
85.8% (inactive)

Another: `CO[C@@]1(NC(=O)CSCC#N)C(=O)N2C(C(=O)O)=C(CSc3nnnn3C)CS[C@@H]21`
122% (inactive)

Another: `CC(C)(C=O)Cc1cc(C(C)(C)C)c(O)c(C(C)(C)C)c1`
98.1% (inactive)

Another: `NC(=Nc1ccccc1)NC(=O)c1nc(Cl)c(N)nc1N`
104% (inactive)

Another: C[C@H]1C2Cc3ccc(O)cc3C1(C)CCN2CC1CC1 (some centres undefined)
70.9% (inactive)

Another: `Cc1cc(N)c2ccccc2[n+]1CCCCCCCCCCCCCC[n+]1c(C)cc(N)c2ccccc21`
79.9% (inactive)

---

# Test system: in vivo angiogenesis, blood vessel count
# METHOD SUMMARY: reduction of blood vessel formation in vivo – HTS, in vivo study (AID 732);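 further: zebrafish embryos dosed at one day post fertilization; 0% = reference inhibitor and 100% = plate mean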
# RUN CONDITIONS: hits give low values;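 tested at 30 µM in the well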
# vessel count % control listing for each entry below
Express the result in % but write the number alone.

The cases that follow already have their vessel count % control on record.
COMPOUND	MEASUREMENT UNITS	vessel count % control
Oc1ccc(C2CNCCc3c2cc(O)c(O)c3Cl)cc1 (centres undefined)	%	117
Cc1cn([C@H]2C=C[C@@H](CO)O2)c(=O)[nH]c1=O	%	99.1
CCCN(CC1CC1)c1nc(C)nc(Nc2c(Cl)cc(Cl)cc2Cl)c1Cl	%	125
CCCN(CCC)CCc1ccc(O)c(O)c1	%	86.9
CN1CCN(C2=Nc3cc(Cl)ccc3Nc3ccccc32)CC1	%	98.7

Need vessel count % control, item `O=C(Nc1cccc(C(=O)Nc2ccc(S(=O)(=O)O)c3cc(S(=O)(=O)O)cc(S(=O)(=O)O)c23)c1)Nc1cccc(C(=O)Nc2ccc(S(=O)(=O)O)c3cc(S(=O)(=O)O)cc(S(=O)(=O)O)c23)c1`
88.2

---

# System: in vivo angiogenesis, blood vessel count
# METHOD SUMMARY: reduction of blood vessel formation in vivo – HTS, in vivo study (AID 732);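 further: zebrafish embryos dosed at one day post fertilization; 0% = reference inhibitor and 100% = plate mean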
# RUN CONDITIONS: hits give low values;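 tested at 30 µM in the well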
EXPERIMENTAL READOUT: vessel count % control (%)
Express the result in % but write the number alone.

MOLECULE	vessel count % control, %
Cc1cc(N)c2ccccc2[n+]1CCCCCCCCCC[n+]1c(C)cc(N)c2ccccc21	100
NC(=O)CN1CC(O)CC1=O (stereo not given)	90.1
CC12CC3CC(C)(C1)CC(N)(C3)C2	128
CNC(=O)[C@H]1O[C@@H](n2cnc3c(NCc4cccc(I)c4)ncnc32)C(O)[C@H]1O (stereo not given in full)	83.3
Nc1cc(Cl)c(NC2=NCCN2)c(Cl)c1	114

Need vessel count % control, item `COc1ccc2[nH]cc(CCN)c2c1`
108

Another: `O=c1[nH]c2ccccc2c2ccccc12`
103

Another: COC[C@H]1OC(=O)c2coc3c2[C@@]1(C)C1=C(C3=O)C2CCC(=O)[C@@]2(C)C[C@H]1OC(C)=O (stereo not given in full)
0

Another: O=P1(N(CCCl)CCCl)NCCCO1 (stereo not given)
105
